Where do these numbers come from? They come from ChEMBL document CHEMBL4190252.

system: OVCAR-8; experiment: Growth inhibition of human OVCAR8 cells incubated for 48 hrs by sulforhodamine B assay; assay type: functional; conditions: OVCAR-8, 48 h
observable: GI50

# smiles.notation, observable, result
rows = [
    ("COCCn1cc(-c2nc(-c3c[nH]c4ncccc34)cs2)c2cc(OC)ccc21", "GI50", "4.11 µM"),
    ("COCCn1cc(-c2csc(-c3c[nH]c4ccccc34)n2)c2cccnc21", "GI50", "8 µM"),
    ("COCCn1cc(-c2csc(-c3c[nH]c4ccc(Br)cc34)n2)c2cccnc21", "GI50", "5.35 µM"),
    ("COCCn1cc(-c2csc(-c3c[nH]c4ccc(F)cc34)n2)c2cccnc21", "GI50", "4.1 µM"),
]

---

tested on: ACHN; assay: Growth inhibition of human ACHN cells incubated for 48 hrs by sulforhodamine B assay; format: functional

# smiles.notation, GI50, µM
data = [
    ("COCCn1cc(-c2nc(-c3c[nH]c4ncccc34)cs2)c2cc(OC)ccc21", 3.08),
    ("COCCn1cc(-c2csc(-c3c[nH]c4ccccc34)n2)c2cccnc21", 5.6),
    ("COCCn1cc(-c2csc(-c3c[nH]c4ccc(Br)cc34)n2)c2cccnc21", 3.04),
    ("COCCn1cc(-c2csc(-c3c[nH]c4ccc(F)cc34)n2)c2cccnc21", 5.27),
]
